Test system: Staphylococcus epidermidis
protocol_text: Antibacterial activity against methicillin-sensitive Staphylococcus epidermidis 09-3 after 18 to 24 hrs by twofold serial dilution method
Assay type: functional
endpoint_label: MIC (µg/mL)

1) CCn1cc(C(=O)O)c(=O)c2cc(F)c(N3C/C(=N\OC)C(/C(N)=N\OC)C3)c(F)c21 (stereo not drawn): 0.25
2) CCO/N=C1\CN(c2c(F)cc3c(=O)c(C(=O)O)cn(C4CC4)c3c2OC(F)F)CC1/C(N)=N\OC (stereo not drawn): 0.125
3) CCO/N=C1\CN(c2c(F)cc3c(=O)c(C(=O)O)cn(CCF)c3c2F)CC1/C(N)=N\OC (stereo not drawn): 0.25
4) CCO/N=C1\CN(c2nc3c(cc2F)c(=O)c(C(=O)O)cn3C2CC2)CC1/C(N)=N\OC (stereo not drawn): 0.25
5) CO/N=C1\CN(c2c(F)cc3c(=O)c(C(=O)O)cn(C4CC4)c3c2F)CC1/C(N)=N\OC (stereo not drawn): 0.125
6) CCO/N=C(/N)C1CN(c2c(F)cc3c(=O)c(C(=O)O)cn4c3c2OC[C@@H]4C)C/C1=N\OC (stereo partly drawn): 0.06
7) CCO/N=C1\CN(c2c(F)cc3c(=O)c(C(=O)O)cn(C4CC4)c3c2OC)CC1/C(N)=N\OC (stereo not drawn): 0.25

----------
Test system: Staphylococcus epidermidis
protocol_text: Antibacterial activity against methicillin-sensitive Staphylococcus epidermidis 09-3 after 18 to 24 hrs by twofold serial dilution method
Format: functional
Below is a list of entries, each paired with its recorded MIC value.
endpoint_label: MIC

1) CO/N=C1\CN(c2c(F)cc3c(=O)c(C(=O)O)cn4c3c2OC[C@@H]4C)CC1/C(N)=N\O (stereo partly drawn): 0.25 µg/mL
2) CCO/N=C1\CN(c2c(F)cc3c(=O)c(C(=O)O)cn(CC)c3c2F)CC1/C(N)=N\O (stereo not drawn): 0.125 µg/mL
3) CCO/N=C1\CN(c2nc3c(cc2F)c(=O)c(C(=O)O)cn3C2CC2)CC1/C(N)=N\O (stereo not drawn): 0.25 µg/mL
4) CO/N=C1\CN(c2c(F)cc3c(=O)c(C(=O)O)cn(C4CC4)c3c2OC(F)F)CC1/C(N)=N\O (stereo not drawn): 0.25 µg/mL
5) CCO/N=C(/N)C1CN(c2c(F)cc3c(=O)c(C(=O)O)cn(C4CC4)c3c2F)C/C1=N\OC (stereo not drawn): 0.06 µg/mL
6) C[C@H]1COc2c(N3CCN(C)CC3)c(F)cc3c(=O)c(C(=O)O)cn1c23.C[C@H]1COc2c(N3CCN(C)CC3)c(F)cc3c(=O)c(C(=O)O)cn1c23.O: 0.125 µg/mL
7) CCO/N=C(/N)C1CN(c2c(F)cc3c(=O)c(C(=O)O)cn(C4CC4)c3c2OC)C/C1=N\OC (stereo not drawn): 0.25 µg/mL
8) CO/N=C1\CN(c2nc3c(cc2F)c(=O)c(C(=O)O)cn3C2CC2)CC1CN (stereo not drawn): 0.125 µg/mL

----------
Below is a list of entries, each paired with its recorded MIC value.
Test system: Staphylococcus epidermidis
protocol_text: Antibacterial activity against methicillin-resistant Staphylococcus epidermidis 09-4 after 18 to 24 hrs by twofold serial dilution method
Format: functional
endpoint_label: MIC (µg/mL)

1. CO/N=C1\CN(c2c(F)cc3c(=O)c(C(=O)O)cn(C4CC4)c3c2OC(F)F)CC1/C(N)=N\O (centres undefined): 0.5
2. CCO/N=C(/N)C1CN(c2c(F)cc3c(=O)c(C(=O)O)cn(C4CC4)c3c2F)C/C1=N\OC (centres undefined): 0.06
3. CO/N=C1\CN(c2c(F)cc3c(=O)c(C(=O)O)cn(C4CC4)c3c2F)CC1/C(N)=N\OC (centres undefined): 0.25
4. C[C@H]1COc2c(N3CCN(C)CC3)c(F)cc3c(=O)c(C(=O)O)cn1c23.C[C@H]1COc2c(N3CCN(C)CC3)c(F)cc3c(=O)c(C(=O)O)cn1c23.O: 0.25
5. CCO/N=C1\CN(c2c(F)cc3c(=O)c(C(=O)O)cn(CCF)c3c2F)CC1/C(N)=N\OCC (centres undefined): 4
6. CCO/N=C(/N)C1CN(c2c(F)cc3c(=O)c(C(=O)O)cn(CC)c3c2F)C/C1=N\OC (centres undefined): 0.125
7. CCO/N=C1\CN(c2nc3c(cc2F)c(=O)c(C(=O)O)cn3C2CC2)CC1/C(N)=N\OCC (centres undefined): 32
8. CO/N=C1\CN(c2c(F)cc3c(=O)c(C(=O)O)cn(C4CC4)c3c2OC)CC1/C(N)=N\O (centres undefined): 0.25
9. CCO/N=C(/N)C1CN(c2c(F)cc3c(=O)c(C(=O)O)cn(CCF)c3c2F)C/C1=N\OC (centres undefined): 0.25
10. CCO/N=C1\CN(c2c(F)cc3c(=O)c(C(=O)O)cn(C4CC4)c3c2F)CC1/C(N)=N\OC (centres undefined): 0.5
11. CCO/N=C(/N)C1CN(c2c(F)cc3c(=O)c(C(=O)O)cn4c3c2OC[C@@H]4C)C/C1=N\OC (some centres undefined): 0.06
12. CCO/N=C(/N)C1CN(c2nc3c(cc2F)c(=O)c(C(=O)O)cn3-c2ccc(F)cc2F)C/C1=N\OC (centres undefined): 0.25
13. CCO/N=C1\CN(c2nc3c(cc2F)c(=O)c(C(=O)O)cn3C2CC2)CC1/C(N)=N\OC (centres undefined): 0.25
14. CO/N=C1\CN(c2c(F)cc3c(=O)c(C(=O)O)cn(CCF)c3c2F)CC1/C(N)=N\OC (centres undefined): 0.125
15. CCn1cc(C(=O)O)c(=O)c2cc(F)c(N3C/C(=N\OC)C(/C(N)=N\O)C3)c(F)c21 (centres undefined): 1
16. CCO/N=C1\CN(c2c(F)cc3c(=O)c(C(=O)O)cn(CCF)c3c2F)CC1/C(N)=N\OC (centres undefined): 0.125
17. CCO/N=C1\CN(c2c(F)cc3c(=O)c(C(=O)O)cn(C4CC4)c3c2OC)CC1/C(N)=N\OCC (centres undefined): 1
18. CCO/N=C1\CN(c2nc3c(cc2F)c(=O)c(C(=O)O)cn3C2CC2)CC1/C(N)=N\O (centres undefined): 0.25
19. CO/N=C1\CN(c2nc3c(cc2F)c(=O)c(C(=O)O)cn3C2CC2)CC1/C(N)=N\OC (centres undefined): 0.25
20. CO/N=C1\CN(c2c(F)cc3c(=O)c(C(=O)O)cn4c3c2OC[C@@H]4C)CC1/C(N)=N\OC (some centres undefined): 0.25
21. CCO/N=C1\CN(c2c(F)cc3c(=O)c(C(=O)O)cn(CCF)c3c2F)CC1/C(N)=N\O (centres undefined): 0.5
22. CCn1cc(C(=O)O)c(=O)c2cc(F)c(N3C/C(=N\OC)C(/C(N)=N\OC)C3)c(F)c21 (centres undefined): 0.25
23. CO/N=C1\CN(c2c(F)cc3c(=O)c(C(=O)O)cn(C4CC4)c3c2OC)CC1/C(N)=N\OC (centres undefined): 0.25
24. CCO/N=C1\CN(c2c(F)cc3c(=O)c(C(=O)O)cn(C4CC4)c3c2OC(F)F)CC1/C(N)=N\OC (centres undefined): 0.25
25. CO/N=C1\CN(c2nc3c(cc2F)c(=O)c(C(=O)O)cn3-c2ccc(F)cc2F)CC1/C(N)=N\OC (centres undefined): 0.25
26. CCO/N=C1\CN(c2c(F)cc3c(=O)c(C(=O)O)cn(CC)c3c2F)CC1/C(N)=N\O (centres undefined): 1
27. CO/N=C1\CN(c2nc3c(cc2F)c(=O)c(C(=O)O)cn3C2CC2)CC1/C(N)=N\O (centres undefined): 2
28. CCO/N=C(/N)C1CN(c2nc3c(cc2F)c(=O)c(C(=O)O)cn3C2CC2)C/C1=N\OC (centres undefined): 0.125
29. CCO/N=C1\CN(c2c(F)cc3c(=O)c(C(=O)O)cn4c3c2OC[C@@H]4C)CC1/C(N)=N\OC (some centres undefined): 0.25
30. CCO/N=C1\CN(c2c(F)cc3c(=O)c(C(=O)O)cn(CC)c3c2F)CC1/C(N)=N\OC (centres undefined): 0.125
31. CCO/N=C1\CN(c2c(F)cc3c(=O)c(C(=O)O)cn(C4CC4)c3c2OC)CC1/C(N)=N\OC (centres undefined): 0.125
32. CO/N=C1\CN(c2nc3c(cc2F)c(=O)c(C(=O)O)cn3C2CC2)CC1CN (centres undefined): 0.06

----------
Tested on: Escherichia coli
protocol_text: Antibacterial activity against Escherichia coli ATCC 25922 after 18 to 24 hrs by twofold serial dilution method
Assay type: functional
endpoint_label: MIC (µg/mL)

1) CCO/N=C1\CN(c2c(F)cc3c(=O)c(C(=O)O)cn(C4CC4)c3c2OC(F)F)CC1/C(N)=N\OCC (configuration not stated): 128
2) CCO/N=C1\CN(c2c(F)cc3c(=O)c(C(=O)O)cn(CCF)c3c2F)CC1/C(N)=N\OCC (configuration not stated): 128
3) C[C@H]1COc2c(N3CCN(C)CC3)c(F)cc3c(=O)c(C(=O)O)cn1c23.C[C@H]1COc2c(N3CCN(C)CC3)c(F)cc3c(=O)c(C(=O)O)cn1c23.O [LEVOFLOXACIN]: 0.125
4) CCO/N=C1\CN(c2nc3c(cc2F)c(=O)c(C(=O)O)cn3-c2ccc(F)cc2F)CC1/C(N)=N\OC (configuration not stated): 128
5) CCO/N=C1\CN(c2c(F)cc3c(=O)c(C(=O)O)cn(CCF)c3c2F)CC1/C(N)=N\O (configuration not stated): 128
6) CO/N=C1\CN(c2nc3c(cc2F)c(=O)c(C(=O)O)cn3C2CC2)CC1/C(N)=N\OC (configuration not stated): 128
7) CCO/N=C(/N)C1CN(c2c(F)cc3c(=O)c(C(=O)O)cn(C4CC4)c3c2OC)C/C1=N\OC (configuration not stated): 128
8) CCO/N=C1\CN(c2c(F)cc3c(=O)c(C(=O)O)cn(C4CC4)c3c2OC)CC1/C(N)=N\OCC (configuration not stated): 16
9) CCn1cc(C(=O)O)c(=O)c2cc(F)c(N3C/C(=N\OC)C(/C(N)=N\OC)C3)c(F)c21 (configuration not stated): 128
10) CO/N=C1\CN(c2c(F)cc3c(=O)c(C(=O)O)cn(C4CC4)c3c2F)CC1/C(N)=N\OC (configuration not stated): 128
11) CCO/N=C1\CN(c2c(F)cc3c(=O)c(C(=O)O)cn(C4CC4)c3c2F)CC1/C(N)=N\OC (configuration not stated): 64
